Tested on: MOLT-3
Test: Anti-leukemic activity against Molt-3 (T-lineage ALL) human acute lymphoblastic leukemia (ALL) cell line
Format: functional, cell-based
pIC50: −log10 of the molar value. Where a SMILES comes first, the peptide text is derived from it. The star is where a group is joined. Farnesyl = CC(C)=CCC/C(C)=C/CC/C(C)=C/C*; Boc = CC(C)(C)OC(=O)*; CHN2 = [N-]=[N+]=C*
endpoint-label: pIC50

Can you look up the measured pIC50 of "CC(C)=CCC/C(C)=C/CC/C(C)=C/CSC[C@H](NC(=O)OC(C)(C)C)C(=O)C=[N+]=[N-]" for me?
4.30

What do you get for "CCCCCCCCCCCCSC[C@H](NC(C)=O)C(=O)CCl" ?
5.64

What do you get for "CC(=O)N[C@@H](CSC/C=C(\C)CC/C=C(\C)CCC=C(C)C)C(=O)C=[N+]=[N-]" ?
4.49

What do you get for CC(C)=CCC/C(C)=C/CC/C(C)=C/CSC[C@H](NC(=O)CNC(=O)OC(C)(C)C)C(=O)C=[N+]=[N-] (Boc-Gly-Cys(Farnesyl)-CHN2) ?
4.07

A: CC(=O)N[C@@H](CSCC=C(C)C)C(=O)CCl
B: CC(=O)N[C@@H](CSC/C=C(\C)CC/C=C(\C)CCC=C(C)C)C(=O)CCl
Field: lower recorded pIC50 (choose A or B ) Mark your selection by writing its label.
A

a: CCCCCCCCCCCCSC[C@H](NC(C)=O)C(=O)C=[N+]=[N-]
b: CCCCCCCCCCCCSC[C@H](N)C(=O)CCl
c: CC(C)=CCC/C(C)=C/CC/C(C)=C/CSC[C@H](NC(=O)OC(C)(C)C)C(=O)CCl
// ranking: key=pIC50, reverse=True Labels, ranked as asked.
c, b, a
(c: 5.11, b: 4.90, a: 4.64)

P: CC(C)=CCC/C(C)=C/CC/C(C)=C/CSCCC(=O)CCl
Q: CCCCCCCCCCCCSC[C@H](NC(=O)OC(C)(C)C)C(=O)CCl
Field: lower recorded pIC50 (choose P or Q ) Mark your selection by writing its label.
P
